These measurements were taken from patent US6596772B1.

Tgt: PTP EPSILON (Homo sapiens, UniProt P23469)
Construct: made in house; host or cells: Sf-9 insect cells (pFastBac-G2T); a pGEX 6P-1 construct also existed
Sequence (P23469 80-393 limits assumed): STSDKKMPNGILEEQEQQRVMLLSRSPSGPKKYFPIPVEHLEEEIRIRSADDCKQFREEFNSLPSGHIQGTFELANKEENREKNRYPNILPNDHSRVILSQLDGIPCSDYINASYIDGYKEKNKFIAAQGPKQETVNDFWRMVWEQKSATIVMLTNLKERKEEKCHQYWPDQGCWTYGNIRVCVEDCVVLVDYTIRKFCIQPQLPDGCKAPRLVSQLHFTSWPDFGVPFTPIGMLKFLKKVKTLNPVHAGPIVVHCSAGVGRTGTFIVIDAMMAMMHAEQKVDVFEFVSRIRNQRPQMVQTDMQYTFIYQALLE
Assay Comment: PTP IC50 assay, fluorescent substrate DiFMUP
Assay type: biochemical
Run Conditions: DiFMUP as substrate, 25° C.; read-out: PTP IC50 Epilson

{"Compound": "Cn1c(C(=O)O)cc2cc(NS(=O)(=O)C(F)(F)F)ccc21", "IC50": "> 100 µM"}
{"Compound": "CCn1c(-c2ccc(C(=O)NCCN3CCCC3)cc2)nc2cc(S(=O)(=O)C(F)(F)F)ccc21", "IC50": "> 100 µM"}
{"Compound": "CCOC(=O)CNC(=O)C(c1ccc(S(=O)(=O)C(F)(F)F)cc1)N(C(C)=O)C1CCCCC1 (centres unmarked)", "IC50": "> 100 µM"}
{"Compound": "CCOC(=O)c1cc2cc(NS(=O)(=O)C(F)(F)F)ccc2n1CC(=O)O", "IC50": "> 100 µM"}
{"Compound": "O=C(O)c1ccc2cc(CN(Cc3ccc4cc(C(=O)O)ccc4c3)S(=O)(=O)C(F)(F)F)ccc2c1", "IC50": "> 20 µM"}

###

Tgt: PTP 1B (Homo sapiens)
Construct: made in house; host or cells: Sf-9 insect cells (pFastBac-G2T)
Sequence (P18031 whole entry): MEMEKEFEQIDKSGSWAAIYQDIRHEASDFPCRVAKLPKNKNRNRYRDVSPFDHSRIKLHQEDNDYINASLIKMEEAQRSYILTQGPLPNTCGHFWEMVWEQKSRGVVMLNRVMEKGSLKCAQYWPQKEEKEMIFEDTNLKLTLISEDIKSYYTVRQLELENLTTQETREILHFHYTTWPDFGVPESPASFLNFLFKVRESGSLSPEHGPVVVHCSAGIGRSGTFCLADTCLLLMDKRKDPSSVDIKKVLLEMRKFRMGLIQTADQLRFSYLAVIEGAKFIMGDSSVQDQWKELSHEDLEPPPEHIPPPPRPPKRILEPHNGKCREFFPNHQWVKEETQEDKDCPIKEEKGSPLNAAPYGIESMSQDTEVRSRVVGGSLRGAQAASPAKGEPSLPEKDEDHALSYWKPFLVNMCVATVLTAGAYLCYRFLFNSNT
Assay Comment: PTP IC50 assay, fluorescent substrate DiFMUP
Type: biochemical
Run Conditions: DiFMUP as substrate, 25° C.; read-out: PTP IC50 1B
Each entry below lists one item and its recorded IC50 value.
Result Type: IC50

{"Compound": "CCn1c(-c2ccc(C(=O)O)cc2)nc2cc(S(=O)(=O)C(F)(F)F)ccc21", "Observed": "> 20 µM"}
{"Compound": "CCOC(=O)c1cc2cc(N(S(=O)(=O)C(F)(F)F)S(=O)(=O)C(F)(F)F)ccc2n1CC(=O)O", "Observed": "> 100 µM"}
{"Compound": "O=C(O)Cn1c(C(=O)O)cc2cc(N(S(=O)(=O)C(F)(F)F)S(=O)(=O)C(F)(F)F)ccc21", "Observed": "> 100 µM"}
{"Compound": "O=C(O)COc1ccc(S(=O)(=O)c2ccc(Oc3ccc(S(=O)(=O)C(F)(F)F)cc3[N+](=O)[O-])cc2)cc1", "Observed": "> 20 µM"}
{"Compound": "O=C(O)c1cc2cc(NS(=O)(=O)C(F)(F)F)ccc2[nH]1", "Observed": "> 100 µM"}
{"Compound": "CCn1c(C(=O)O)nc2cc(S(=O)(=O)C(F)(F)F)ccc21", "Observed": "> 20 µM"}
{"Compound": "CCOC(=O)c1cc2cc(NS(=O)(=O)C(F)(F)F)ccc2n1CC(=O)O", "Observed": "> 100 µM"}
{"Compound": "CCOC(=O)c1cc(Oc2ccc(S(=O)(=O)C(F)(F)F)cc2[N+](=O)[O-])c(C(=O)OCC)cc1Oc1ccc(S(=O)(=O)C(F)(F)F)cc1[N+](=O)[O-]", "Observed": "> 20 µM"}
{"Compound": "CCOC(=O)CNC(=O)C(c1ccc(S(=O)(=O)C(F)(F)F)cc1)N(C(C)=O)C1CC1 (stereo not drawn)", "Observed": "> 100 µM"}

###

Tgt: PTP MEG2 (Homo sapiens, UniProt P43378)
Construct: made in house; host or cells: E. coli BL-21 (pGEX 6P-1)
Sequence (P43378 262-593 limits assumed): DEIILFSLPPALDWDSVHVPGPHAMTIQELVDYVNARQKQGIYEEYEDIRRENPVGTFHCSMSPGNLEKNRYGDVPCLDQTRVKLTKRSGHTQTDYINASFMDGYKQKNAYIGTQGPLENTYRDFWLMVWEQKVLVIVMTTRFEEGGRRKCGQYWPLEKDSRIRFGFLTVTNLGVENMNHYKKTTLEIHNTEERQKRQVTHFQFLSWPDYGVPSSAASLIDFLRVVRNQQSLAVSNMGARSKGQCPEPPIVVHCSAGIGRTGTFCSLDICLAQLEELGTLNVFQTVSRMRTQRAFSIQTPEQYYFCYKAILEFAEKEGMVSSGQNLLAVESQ
Assay Comment: PTP IC50 assay, pNPP or FDP as substrate
Type: biochemical
Run Conditions: pNPP or FDP as substrate, 25° C.; read-out: PTP IC50 MEG2
pIC50: −log10 of the molar value.

{"Molecule": "O=[N+]([O-])c1cc(S(=O)(=O)C(F)(F)F)ccc1Oc1cc(CN2CCOCC2)c(Oc2ccc(S(=O)(=O)C(F)(F)F)cc2[N+](=O)[O-])cc1CN1CCOCC1 [Example 23]", "pIC50": "< 4.00"}
{"Molecule": "O=S(=O)(Nc1ccc(CCc2ccc(NS(=O)(=O)C(F)(F)F)cc2)cc1)C(F)(F)F [Example 66]", "pIC50": "< 4.00"}
{"Molecule": "CC(C)(COc1ccc(NS(=O)(=O)C(F)(F)F)cc1)COc1ccc(NS(=O)(=O)C(F)(F)F)cc1 [Example 68]", "pIC50": 4.46}
{"Molecule": "O=[N+]([O-])c1cc(S(=O)(=O)C(F)(F)F)ccc1OC1CCC(Oc2ccc(S(=O)(=O)C(F)(F)F)cc2[N+](=O)[O-])C1 (mixture of isomers) [Example 12]", "pIC50": "< 4.00"}
{"Molecule": "O=C(NCc1ccc(S(=O)(=O)C(F)(F)F)cc1)c1ccccc1 [Example 6]", "pIC50": "< 4.00"}
{"Molecule": "O=S(=O)(Nc1ccc(Oc2cccc(Oc3ccc(NS(=O)(=O)C(F)(F)F)cc3)c2)cc1)C(F)(F)F [Example 74]", "pIC50": 4.23}
{"Molecule": "COC(=O)c1c(Oc2ccc(S(=O)(=O)C(F)(F)F)cc2[N+](=O)[O-])cc(C)cc1Oc1ccc(S(=O)(=O)C(F)(F)F)cc1[N+](=O)[O-] [Example 13]", "pIC50": "< 4.00"}
{"Molecule": "O=C(O)c1cc(Oc2ccc(S(=O)(=O)C(F)(F)F)cc2)cc(Oc2ccc(S(=O)(=O)C(F)(F)F)cc2)c1 [Example 31]", "pIC50": 5.02}
{"Molecule": "COC(=O)c1cc(Oc2ccc(S(=O)(=O)C(F)(F)F)cc2)cc(Oc2ccc(S(=O)(=O)C(F)(F)F)cc2)c1 [Example 9]", "pIC50": "< 4.00"}

###

Tgt: PTP EPSILON (Homo sapiens, UniProt P23469)
Construct: made in house; host or cells: Sf-9 insect cells (pFastBac-G2T); a pGEX 6P-1 construct also existed
Assay Comment: PTP IC50 assay, pNPP or FDP as substrate
Assay type: biochemical
Run Conditions: pNPP or FDP as substrate, 25° C.; read-out: PTP IC50 Epilson
Procedure: The following in vitro assay procedure is preferred to determine the level of activity and effect of the different compounds of the present invention on one or more of the PTPs. […] The catalytic assays described herein are performed in a 96-well format. […] Next, the Michaelis-Menten constant, or Km, is determined for each specific substrate-PTP system. […] All assays were performed using pNPP or FDP as substrate. The optimum pH was determined for each PTP used. […]
// assign criterion met if IC50 falls strictly below 50 µM, else criterion not met (ties count as criterion not met)

{"Compound": "CCNc1ccc(S(=O)(=O)C(F)(F)F)cc1NC(=O)Cc1ccc(S(C)(=O)=O)cc1 [Example 25]", "Label": "criterion met"}
{"Compound": "COC(=O)c1cc(Oc2ccc(S(=O)(=O)C(F)(F)F)cc2[N+](=O)[O-])n(-c2cc(C(F)(F)F)cc(C(F)(F)F)c2)n1 [Example 16]", "Label": "criterion not met"}
{"Compound": "O=[N+]([O-])c1cc(S(=O)(=O)C(F)(F)F)ccc1SSc1ccc(S(=O)(=O)C(F)(F)F)cc1[N+](=O)[O-] [Example 8]", "Label": "criterion not met"}
{"Compound": "O=C(Cc1cccc(CC(=O)Nc2cccc(S(=O)(=O)C(F)(F)F)c2)c1)Nc1cccc(S(=O)(=O)C(F)(F)F)c1 [Example 21]", "Label": "criterion not met"}
{"Compound": "O=S(=O)(Nc1ccc(Oc2cccc(Oc3ccc(NS(=O)(=O)C(F)(F)F)cc3)c2)cc1)C(F)(F)F [Example 74]", "Label": "criterion met"}

###

Tgt: PTP DEP1 (Homo sapiens, UniProt Q12913)
Construct: GST-fusion proteins encompassing the entire cytoplasmic domain was done by PCR
Sequence (Q12913 997-1337 limits assumed): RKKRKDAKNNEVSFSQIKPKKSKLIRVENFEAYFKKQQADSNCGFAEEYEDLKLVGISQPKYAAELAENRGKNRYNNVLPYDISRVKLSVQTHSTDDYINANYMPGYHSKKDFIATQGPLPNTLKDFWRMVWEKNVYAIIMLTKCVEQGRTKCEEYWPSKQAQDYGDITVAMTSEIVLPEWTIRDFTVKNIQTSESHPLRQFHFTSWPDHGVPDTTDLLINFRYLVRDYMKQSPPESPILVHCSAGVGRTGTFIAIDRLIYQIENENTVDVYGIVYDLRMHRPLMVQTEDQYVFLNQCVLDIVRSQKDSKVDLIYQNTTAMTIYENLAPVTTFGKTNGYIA
Assay Comment: PTP IC50 assay, pNPP or FDP as substrate
Run Conditions: 25° C.

{"Cpd Smiles": "O=C(NCc1ccc(S(=O)(=O)C(F)(F)F)cc1)c1ccccc1", "IC50": "> 100 µM"}
{"Cpd Smiles": "O=S(=O)(Nc1ccc(CCc2ccc(NS(=O)(=O)C(F)(F)F)cc2)cc1)C(F)(F)F", "IC50": "> 100 µM"}
{"Cpd Smiles": "O=S(=O)(Nc1ccc(OCCCOc2ccc(NS(=O)(=O)C(F)(F)F)cc2)cc1)C(F)(F)F", "IC50": "> 100 µM"}
